Molecular target: HLA-A*02:01 (Homo sapiens, UniProt P04439, D140Y/D185E/D98H/E176V/E277Q/G131W/G231S/I119V/I121R/I166T/I218V/L300P/L318F/N151K/N90K/P208A/P217A/Q86G/Q94H/R138H/R169H/T345S)
Experiment: MHC binding assay (UV-ligand exchange, anti-β2m ELISA, peptide exchange yield)
Settings: binding to HLA-A*02:01
readout: Peptide exchange (MHC class I binding score, peptide exchange yield)

Illustrative cases are given below, each with its answer.
>  <substance>
228 (AMQEYIAVV; listed as Homo sapiens) [compound 228]

>  <obs.value>
“++” (>20% = ++)

$$$$
>  <substance>
319 (SLEPQIQPV; listed as Homo sapiens) [compound 319]

>  <obs.value>
“++” (>20% = ++)

$$$$
>  <substance>
267 (ALQDFLLSV; listed as Homo sapiens) [compound 267]

>  <obs.value>
“+++” (>50 = +++)

$$$$
>  <substance>
507 (KLIDDQDISISL; listed as Homo sapiens) [compound 507]

>  <obs.value>
“+++” (>50 = +++)

$$$$
>  <substance>
174 (ALAQYLITA; listed as Homo sapiens) [compound 174]

>  <obs.value>
“+++” (>50 = +++)

$$$$

According to the records, this substance 348 (ILLDVKTRL; listed as Homo sapiens) [compound 348] displays Peptide exchange (MHC class I binding score, peptide exchange yield) of “++++” (>75% = ++++)

Summary for this substance, 442 (GLLGGGGVLGV; listed as Homo sapiens) [compound 442] : Peptide exchange (MHC class I binding score, peptide exchange yield) is “+++” (>50 = +++)

Peptide exchange (MHC class I binding score, peptide exchange yield) reported for this substance 161 (ALLEGVNTV; listed as Homo sapiens) [compound 161] : “+++” (>50 = +++)

* * *

Molecular target: HLA-A*02:01 (Homo sapiens, UniProt P04439, D140Y/D185E/D98H/E176V/E277Q/G131W/G231S/I119V/I121R/I166T/I218V/L300P/L318F/N151K/N90K/P208A/P217A/Q86G/Q94H/R138H/R169H/T345S)
Assay: MHC binding assay (UV-ligand exchange, anti-β2m ELISA, peptide exchange yield)
Conditions: binding to HLA-A*02:01
readout: Peptide exchange (MHC class I binding score, peptide exchange yield)

>  <substance>
527 (FLLEPGNLEV; listed as Homo sapiens) [compound 527]

>  <obs.value>
“++++” (>75% = ++++)

$$$$
>  <substance>
342 (HIYDKVMTV; listed as Homo sapiens) [compound 342]

>  <obs.value>
“+++” (>50 = +++)

$$$$
>  <substance>
169 (NLPEYLPFV; listed as Homo sapiens) [compound 169]

>  <obs.value>
“+++” (>50 = +++)

$$$$
>  <substance>
182 (MLLEAPGIFL; listed as Homo sapiens) [compound 182]

>  <obs.value>
“+++” (>50 = +++)

$$$$

Reported Peptide exchange (MHC class I binding score, peptide exchange yield) of 305 (SIANFSEFYV; listed as Homo sapiens) [compound 305] : “++++” (>75% = ++++)

* * *

Target: HLA-A*02:01 (Homo sapiens, UniProt P04439, D140Y/D185E/D98H/E176V/E277Q/G131W/G231S/I119V/I121R/I166T/I218V/L300P/L318F/N151K/N90K/P208A/P217A/Q86G/Q94H/R138H/R169H/T345S)
Test: MHC binding assay (UV-ligand exchange, anti-β2m ELISA, peptide exchange yield)
Details: binding to HLA-A*02:01
readout: Peptide exchange (MHC class I binding score, peptide exchange yield)

Consider the following illustrative entries.
>  <substance>
400 (SLLTEQDLWTV; listed as Homo sapiens) [compound 400]

>  <obs.value>
“++” (>20% = ++)

$$$$
>  <substance>
312 (IISDLTIAL; listed as Homo sapiens) [compound 312]

>  <obs.value>
“+++” (>50 = +++)

$$$$
>  <substance>
544 (LLWDVPAPSL; listed as Homo sapiens) [compound 544]

>  <obs.value>
“+++” (>50 = +++)

$$$$
>  <substance>
513 (SLWPSPEQL; listed as Homo sapiens) [compound 513]

>  <obs.value>
“++” (>20% = ++)

$$$$
>  <substance>
256 (FLPPEHTIVYI; listed as Homo sapiens) [compound 256]

>  <obs.value>
“+++” (>50 = +++)

$$$$
>  <substance>
455 (SLLKEPQKVQL; listed as Homo sapiens) [compound 455]

>  <obs.value>
“++” (>20% = ++)

$$$$
>  <substance>
608 (SLLSVSHAL; listed as Homo sapiens) [compound 608]

>  <obs.value>
“+++” (>50 = +++)

$$$$
>  <substance>
41 (SLMPHIPGL; listed as Homo sapiens) [compound 41]

>  <obs.value>
“+++” (>50 = +++)

$$$$
>  <substance>
588 (SLLPLSHLV; listed as Homo sapiens) [compound 588]

>  <obs.value>
“+++” (>50 = +++)

$$$$
>  <substance>
210 (LLLNAVLTV; listed as Homo sapiens) [compound 210]

>  <obs.value>
“++” (>20% = ++)

$$$$

Looking up 140 (YMDAPKAAL; listed as Homo sapiens) [compound 140] , I found its Peptide exchange (MHC class I binding score, peptide exchange yield) recorded as “++” (>20% = ++)

Looking up 330 (QLALKVEGV; listed as Homo sapiens) [compound 330] , I see its Peptide exchange (MHC class I binding score, peptide exchange yield) listed as “+++” (>50 = +++)

Record summary for 592 (RLLSAAENFL; listed as Homo sapiens) [compound 592] : reported Peptide exchange (MHC class I binding score, peptide exchange yield) = “+++” (>50 = +++)

Per the records, this substance ( 440 (ALADGVTMQV; listed as Homo sapiens) [compound 440] ) has Peptide exchange (MHC class I binding score, peptide exchange yield) equal to “++” (>20% = ++)

substance 502 (RLLAQVPGL; listed as Homo sapiens) [compound 502] , Peptide exchange (MHC class I binding score, peptide exchange yield) observed: “+++” (>50 = +++)

226 (MLYVVPIYL; listed as Homo sapiens) [compound 226] yielded Peptide exchange (MHC class I binding score, peptide exchange yield) of “++” (>20% = ++)

Peptide exchange (MHC class I binding score, peptide exchange yield) in this record for 515 (LLQELVLFL; listed as Homo sapiens) [compound 515] : “+++” (>50 = +++)

Given item 191 (LLQEGQALEYV; listed as Homo sapiens) [compound 191] , the value recorded as its Peptide exchange (MHC class I binding score, peptide exchange yield) is “++” (>20% = ++)

* * *

Target: HLA-A*02:01 (Homo sapiens, UniProt P04439, D140Y/D185E/D98H/E176V/E277Q/G131W/G231S/I119V/I121R/I166T/I218V/L300P/L318F/N151K/N90K/P208A/P217A/Q86G/Q94H/R138H/R169H/T345S)
Assay: MHC binding assay (UV-ligand exchange, anti-β2m ELISA, peptide exchange yield)
Conditions: binding to HLA-A*02:01
readout: Peptide exchange (MHC class I binding score, peptide exchange yield)

>  <substance>
207 (GLTSTNAEV; listed as Homo sapiens) [compound 207]

>  <obs.value>
“++” (>20% = ++)

$$$$
>  <substance>
51 (LLPDLEFYV; listed as Homo sapiens) [compound 51]

>  <obs.value>
“++++” (>75% = ++++)

$$$$
>  <substance>
67 (TLLAEALVTV; listed as Homo sapiens) [compound 67]

>  <obs.value>
“+++” (>50 = +++)

$$$$
>  <substance>
77 (ILVEADGAWVV; listed as Homo sapiens) [compound 77]

>  <obs.value>
“++++” (>75% = ++++)

$$$$
>  <substance>
20 (RMIEYFIDV; listed as Homo sapiens) [compound 20]

>  <obs.value>
“+++” (>50 = +++)

$$$$
>  <substance>
437 (SMAPGLVIQAV; listed as Homo sapiens) [compound 437]

>  <obs.value>
“+++” (>50 = +++)

$$$$

Form: substance = 574 (YLLQEPPRTV; listed as Homo sapiens) [compound 574] ; Peptide exchange (MHC class I binding score, peptide exchange yield) = “++” (>20% = ++)

Note to self: Peptide exchange (MHC class I binding score, peptide exchange yield) recorded for 109 (IILSILEQA; listed as Homo sapiens) [compound 109] was “++++” (>75% = ++++)

Reported Peptide exchange (MHC class I binding score, peptide exchange yield) of 350 (ALLDVTHSELTV; listed as Homo sapiens) [compound 350] : “+++” (>50 = +++)
